This listing pairs variants with measured protein stability index.
B1: STEAP1 (parent)
chain: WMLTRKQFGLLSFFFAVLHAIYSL

- Variants of: B1
- Assay Details: protein stability index of a GFP-peptide fusion (GPS, HEK-293T) (PSI 1-6); higher = more stable;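 note: lentivirally expressed fusions sorted by FACS into six bins by GFP to DsRed ratio, PSI derived from sequencing read proportions per bin multiplied by bin number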
- Condition Description: c terminus: a fixed tail appended
Write the number on its own, no unit after it.

Sample records with protein stability index:
WMLTRKQFGSLSFFFAVLHAIYSL [L10S]
1.53
WMLTRKQFGLISFFFAVLHAIYSL [L11I]
2.31
WMLTRKQFGLLSFFFRVLHAIYSL [A16R]
1.93
WMLTRKQFGLLSFFFAVLHAIYSA [L24A]
1.91
WMLTRKQFGLLSFFQAVLHAIYSL [F15Q]
2.62
WMLTRKQFGLLSFFFWVLHAIYSL [A16W]
2.19
WMLTRKQFGTLSFFFAVLHAIYSL [L10T]
1.96
WMLTRYQFGLLSFFFAVLHAIYSL [K6Y]
3.86

Problem: State, in one line, measured protein stability index of WMLTRKQFGLASFFFAVLHAIYSL [L11A]
Result: 2.01

Problem: State, in one line, measured protein stability index of WMLTRKQFGLLSFFFAVLWAIYSL [H19W]
Result: 3.67

Problem: State, in one line, measured protein stability index of WMLTRKAFGLLSFFFAVLHAIYSL [Q7A]
Result: 2.49

Problem: State, in one line, measured protein stability index of WMLTRKQFGLLSFFFAVRHAIYSL [L18R]
Result: 1.8

Problem: State, in one line, measured protein stability index of WMLTRKQFGLLSFFRAVLHAIYSL [F15R]
Result: 1.7

Problem: State, in one line, measured protein stability index of WMLTRKQFGLLSFFFAVLVAIYSL [H19V]
Result: 3.14

Problem: State, in one line, measured protein stability index of WMLTRKQFGLLSFFFAVLHAINSL [Y22N]
Result: 1.34

Problem: State, in one line, measured protein stability index of WMLTRKQIGLLSFFFAVLHAIYSL [F8I]
Result: 1.5

Problem: State, in one line, measured protein stability index of WMLTRKQFGLLSFFFAVLHRIYSL [A20R]
Result: 1.73

Problem: State, in one line, measured protein stability index of WWLTRKQFGLLSFFFAVLHAIYSL [M2W]
Result: 1.75

Problem: State, in one line, measured protein stability index of WMLTRFQFGLLSFFFAVLHAIYSL [K6F]
Result: 1.79

Problem: State, in one line, measured protein stability index of FMLTRKQFGLLSFFFAVLHAIYSL [W1F]
Result: 1.71

Problem: State, in one line, measured protein stability index of WMLTRKQFGLLSFFFAVQHAIYSL [L18Q]
Result: 2.82

Problem: State, in one line, measured protein stability index of WMLTRKQFGLLSTFFAVLHAIYSL [F13T]
Result: 2.69

Problem: State, in one line, measured protein stability index of WMLTRKQFGLLSEFFAVLHAIYSL [F13E]
Result: 4.58
